Tested on: 885512-296-R-J2-PDC complex spheroid growth, % test/control;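 also: spheroids exposed to compounds for seven days; 100% = DMSO vehicle control wells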
assay_comment: Anticancer human tumor 885512-296-R-J2-PDC patient-derived breast carcinoma cell line growth inhibition [Asc]
condition_summary: second compound 0.316 µM; first compound 0.0316 µM; hits give low values
Provide the reported viability, T/C of each item.
The reply should contain only the number, in %.

For the compound C#Cc1c(F)ccc2cc(O)cc(-c3ncc4c(N5CC6CCC(C5)N6)nc(OCC56CCCN5CC(F)C6)nc4c3F)c12 (stereo not drawn) + Cc1c(S(C)(=O)=O)c(-c2cc(F)cc(N3CCN(c4ccc(NS(=O)(=O)c5ccc(NC(CCN6CCC(C(=O)OCCCP(=O)(O)O)CC6)CSc6ccccc6)c(S(=O)(=O)C(F)(F)F)c5)cc4)CC3)c2)c(-c2ccc(Cl)cc2)n1C(C)C , give its reported viability, T/C.
96.8

Indicate its recorded viability, T/C; the compound in question is O=C(c1cc(Cc2n[nH]c(=O)c3ccccc23)ccc1F)N1CCN(C(=O)C2CC2)CC1 + CNC(C)C(=O)NC1CN(S(=O)(=O)c2cccc(S(=O)(=O)N3CCC4CCC(C(=O)NC(c5ccccc5)c5ccccc5)N4C(=O)C(NC(=O)C(C)NC)C3)c2)CCC2CCC(C(=O)NC(c3ccccc3)c3ccccc3)N2C1=O
101

Give reported viability, T/C value for C=CC(=O)N1CCN(c2nc(=O)n(-c3c(C)ccnc3C(C)C)c3nc(-c4c(O)cccc4F)c(F)cc23)C(C)C1 (stereo not drawn) + Cc1c(S(C)(=O)=O)c(-c2cc(F)cc(N3CCN(c4ccc(NS(=O)(=O)c5ccc(NC(CCN6CCC(C(=O)OCCCP(=O)(O)O)CC6)CSc6ccccc6)c(S(=O)(=O)C(F)(F)F)c5)cc4)CC3)c2)c(-c2ccc(Cl)cc2)n1C(C)C
94.3
